Value source: patent US20090047655A1

# test: Pharmacokinetic test using chimeric mouse, 5 marker drugs simultaneously, oral or intravenous, donor IVT079
# conditions used: uPA(−/−)/SCID, mouse, in vivo, iv, AUC, intravenous administration; uPA(−/−)/SCID mouse
measured metric: AUC (ng·h/mL)
State the answer as a number, implicitly in ng·h/mL.

Enquiry: Give the measured AUC of COc1ccc2c(c1)[C@]13CCCC[C@@H]1[C@H](C2)N(C)CC3 [Dextromethorphan, dextromethorphan] .
Return: 2610

* * *

# Test system: CYP2D6
# test: Pharmacokinetic test of marker drugs in high-replacement chimeric mouse under inhibition of CYP2D6 by paroxetine, donor BD51
# conditions used: uPA(+/+)/SCID, in vivo, po
measured metric: AUC (ng·h/mL)
State the answer as a number, implicitly in ng·h/mL.

Enquiry: Give the measured AUC of `COc1ccc2c(c1)[C@]13CCCC[C@@H]1[C@H](C2)N(C)CC3` .
Return: 358

* * *

# test: in vivo
# conditions used: uPA(−/−)/SCID, mouse, in vivo, iv, t 1/2 Elimination phase
measured metric: half-life
Answer with the value and then the unit.

Example cases with answers are listed next.
| molecule | half-life |
| --- | --- |
| CC[C@H]1OC(=O)[C@H](C)[C@@H](O[C@H]2C[C@@](C)(OC)[C@@H](O)[C@H](C)O2)[C@H](C)[C@@H](O[C@@H]2O[C@H](C)C[C@H](N(C)C)[C@H]2O)[C@](C)(O)C[C@@H](C)C(=O)[C@H](C)[C@@H](O)[C@]1(C)O [Erythromycin, erythromycin] | 1.1 h |
| CCCCNC(=O)NS(=O)(=O)c1ccc(C)cc1 [Tolbutamide, tolbutamide] | 2.56 h |
| COc1ccc2[nH]c([S+]([O-])Cc3ncc(C)c(OC)c3C)nc2c1 (stereo not shown) [Omeprazole, omeprazole] | 0.971 h |

Then there is this molecule:
Enquiry: Give the measured half-life of Cn1c(=O)c2c(ncn2C)n(C)c1=O [Caffeine, caffeine] .
Return: 0.505 h

* * *

# Tested on: CYP2D6
# test: in vivo
# conditions used: uPA(+/+)/SCID, mouse, po, t 1/2 Distribution phase
measured metric: half-life (h)
State the answer as a number, implicitly in h.

Example cases with answers are listed next.
| compound | half-life / h |
| --- | --- |
| CCCCNC(=O)NS(=O)(=O)c1ccc(C)cc1 [Tolbutamide, tolbutamide] | 3.31 |
| COc1ccc2[nH]c([S+]([O-])Cc3ncc(C)c(OC)c3C)nc2c1 (stereo not drawn) [Omeprazole, omeprazole] | 0.3 |

Then there is this compound:
Enquiry: CYP2D6 / half-life / Cn1c(=O)c2c(ncn2C)n(C)c1=O [Caffeine, caffeine] : value?
Return: 3.4

* * *

# test: in vivo
# conditions used: uPA(−/−)/SCID, mouse, in vivo, po, Cmax
Cmax overview
State the answer as a number, implicitly in ng/mL.

Enquiry: Give the measured Cmax of COc1ccc2[nH]c([S+]([O-])Cc3ncc(C)c(OC)c3C)nc2c1 (stereo not shown) .
Return: 94

Enquiry: Moving on to `Cn1c(=O)c2c(ncn2C)n(C)c1=O`
Return: 8800

Enquiry: Moving on to `CC[C@H]1OC(=O)[C@H](C)[C@@H](O[C@H]2C[C@@](C)(OC)[C@@H](O)[C@H](C)O2)[C@H](C)[C@@H](O[C@@H]2O[C@H](C)C[C@H](N(C)C)[C@H]2O)[C@](C)(O)C[C@@H](C)C(=O)[C@H](C)[C@@H](O)[C@]1(C)O`
Return: 1000

Enquiry: Moving on to CCCCNC(=O)NS(=O)(=O)c1ccc(C)cc1 [Tolbutamide, tolbutamide]
Return: 16900

* * *

# Test system: CYP2D6
# test: Pharmacokinetic test of marker drugs in high-replacement chimeric mouse under inhibition of CYP2D6 by paroxetine, donor BD51
# conditions used: uPA(+/+)/SCID, in vivo, po, t 1/2 Elimination phase, high-replacement chimeric mouse, donor BD51, inhibitor paroxetine, time window per footnote
measured metric: half-life
Answer with the value and then the unit.

Enquiry: Give the measured half-life of COc1ccc2c(c1)[C@]13CCCC[C@@H]1[C@H](C2)N(C)CC3 [Dextromethorphan, dextromethorphan] .
Return: 5.29 h

* * *

# test: Pharmacokinetic test using chimeric mouse, 5 marker drugs simultaneously, oral or intravenous, donor IVT079
# conditions used: uPA(+/+)/SCID, mouse, in vivo, iv, t 1/2 Distribution phase, intravenous administration; low-replacement chimeric mouse; donor IVT079; time window per footnote
measured metric: half-life (min)
State the answer as a number, implicitly in min.

Enquiry: Give the measured half-life of `COc1ccc2c(c1)[C@]13CCCC[C@@H]1[C@H](C2)N(C)CC3` .
Return: 24.8

* * *

half-life overview
# test: in vivo
# conditions used: uPA(−/−)/SCID, mouse, in vivo, iv, t 1/2 Distribution phase
# Description: As for the chimeric mice, chimeric mice produced by Hiroshima Prefectural Institute of Industrial Science and Technology or PhoenixBio Co., Ltd. were used. […] To Eppendorf tubes in which 5 μl of samples to be measured (serum) were contained, 100 μl of methanol was added, and 10 μl of 1 μg/ml of I.S. standard solution was added thereto, and then, the mixtures were thoroughly mixed by an ultrasonic treatment and a vortex mixer. […]
State the answer as a number, implicitly in min.

Example cases with answers are listed next.
| compound | unit label | observed measurement |
| --- | --- | --- |
| CCCCNC(=O)NS(=O)(=O)c1ccc(C)cc1 [Tolbutamide, tolbutamide] | min | 170 |
| CC[C@H]1OC(=O)[C@H](C)[C@@H](O[C@H]2C[C@@](C)(OC)[C@@H](O)[C@H](C)O2)[C@H](C)[C@@H](O[C@@H]2O[C@H](C)C[C@H](N(C)C)[C@H]2O)[C@](C)(O)C[C@@H](C)C(=O)[C@H](C)[C@@H](O)[C@]1(C)O [Erythromycin, erythromycin] | min | 21 |
| Cn1c(=O)c2c(ncn2C)n(C)c1=O [Caffeine, caffeine] | min | 36.5 |

Then there is this compound:
Enquiry: Give the measured half-life of COc1ccc2[nH]c([S+]([O-])Cc3ncc(C)c(OC)c3C)nc2c1 (stereo not shown) [Omeprazole, omeprazole] .
Return: 14.4

* * *

# test: in vivo
# conditions used: uPA(+/+)/SCID, mouse, in vivo, iv, AUC
measured metric: AUC (ng·h/mL)
State the answer as a number, implicitly in ng·h/mL.

Enquiry: Give the measured AUC of CCCCNC(=O)NS(=O)(=O)c1ccc(C)cc1 [Tolbutamide, tolbutamide] .
Return: 16800
